Organism: Mus musculus
Assay Protocol: Radioactivity uptake in the blood was expressed as a percentage of the injected radioactive dose per gram of tissue (% ID/g) in B16/F1 Murine Melanoma-Bearing C57 Mice at 24 h
Format: functional, organism-based
In this section we review reported ID/g values for a set of substances.

Answered cases to consult:
>>> experimental_value("DOTA-ReCCEHdFRWCKPVD-OH")
"0.018%"
>>> experimental_value("DOTA-ReCCEHdFRWCKPV-NH2")
"0.01%"
>>> experimental_value("DOTA-ReCCEHdFRWCKPV-OH")
"0.1%"
>>> experimental_value("Ac-Lys(DOTA)-ReCCEHdFRWCKPV-NH2")
"0.072%"

Q: Suppose we examine the substance DOTA-ReCCEHdFRWCRPV-NH2 ; what ID/g value has been reported?
Ans: 0.06%

Where do the numbers come from? From ChEMBL document CHEMBL1135742.
